# Test system: tumour
# procedure summary: Dosimetry with regard to the tumour (MIRD programme, extrapolated to ^131I)
# cond: from biodistribution data
Where a name gives a salt, the structure may show the parent alone.
parameter: Biological period (hours)
Numbers only, in hours.

// below: answered molecules
GET /value?item= CCN(CC)CCNC(=O)c1ccc(I)cc1 [BZA, N-(2-diethylaminoethyl)-4-iodobenzamide, reference compound] &field=Biological period returns 19.6

// Biological period value for CCN(CC)CCNC(=O)c1cnc2cc(I)ccc2n1.Cl.Cl [compound 46] : 66.1

Item: CCN(CC)CCNC(=O)c1ccc2cc(I)ccc2c1 [compound 3, hydrochloride] | Biological period: 24.0

Please supply Biological period for each of the following items, keeping them in order.
1. CCN(CC)CCNC(=O)c1cccc2cc3cccc(I)c3nc12 [compound 102, dihydrochloride]
2. CCN(CC)CCNC(=O)c1nc2ccccn2c1I [compound 16, dihydrochloride]
3. CCN(CC)CCNC(=O)c1cccc2c(Nc3ccc(NS(C)(=O)=O)cc3OC)c3cc(I)ccc3nc12 [compound 129, dihydrochloride]
4. CCN(CC)CCNC(=O)c1cc2c(I)cccc2s1.Cl [compound 13]
5. CCN(CC)CCNC(=O)c1cc2cc(I)ccc2[nH]1 [compound 10, hydrochloride]
6. CCN(CC)CCNC(=O)c1ccc2cncc(I)c2n1.Cl.Cl [compound 142]
7. CCN(CC)CCNC(=O)c1cccc2c(=O)c3cc(I)ccc3[nH]c12 [compound 84, hydrochloride]
8. CCN(CC)CCNC(=O)c1c[nH]c2ccc(I)cc2c1=O [compound 35, dihydrochloride]

## Result
1: 43.3; 2: 7.8; 3: 162.3; 4: 26.7; 5: 20.1; 6: 30.2; 7: 268.9; 8: 66.3

Dear colleague, could you please provide Biological period for the molecules listed below?
1. CCN(CC)CCNC(=O)c1ccc(I)nc1 [compound 7, dihydrochloride]
2. CCN(CC)CCNC(=O)c1ccc2cc(I)ccc2n1.Cl.Cl [compound 31]
3. CCCN(CCC)CCCCNC(=O)c1ccc2cc(I)ccc2n1 [compound 49, dihydrochloride]
4. CCN(CC)CCNC(=O)c1cc2c(I)cccc2cn1 [compound 39, dihydrochloride]
5. CCN(CC)CCNC(=O)c1nc2ccc(I)cc2[nH]1.Cl.Cl [compound 26]

## Result
19.0
38.0
69.7
56.3
42.9
